Data provenance: ChEMBL document CHEMBL4622990

System: Z-138
Experiment: Antiproliferative activity against human Z138 cells assessed as reduction in cell viability incubated for 72 hrs by IncuCyte live-cell imaging assay
Assay type: functional, cell-based
Conditions: Z-138, 72 h
# IC50 values compiled below

- Molecule: "Nc1ncnn2c([C@@H]3O[C@H](CO)[C@@H](O)[C@H]3O)cc(-c3ccccc3)c12"
  Display unit: "µM"
  Cmp: ">"
  IC50: 100
- Molecule: "CCCC#Cc1cc([C@@H]2O[C@H](CO)[C@@H](O)[C@H]2O)n2ncnc(N)c12"
  Display unit: "µM"
  Cmp: "="
  IC50: 0.02
- Molecule: "Nc1ncnn2c([C@@H]3O[C@H](CO)[C@@H](O)[C@H]3O)cc(-c3ccc(Cl)cc3)c12"
  Display unit: "µM"
  Cmp: "="
  IC50: 40.2
- Molecule: "Nc1ncnn2c([C@@H]3O[C@H](CO)[C@@H](O)[C@H]3O)cc(-c3ccc(F)cc3F)c12"
  Display unit: "µM"
  Cmp: "="
  IC50: 59.1
- Molecule: "CC(=O)O[C@@]12CO[C@@H]1C[C@H](O)[C@@]1(C)C(=O)[C@H](O)C3=C(C)[C@@H](OC(=O)[C@H](O)[C@@H](NC(=O)OC(C)(C)C)c4ccccc4)C[C@@](O)([C@@H](OC(=O)c4ccccc4)[C@H]21)C3(C)C [DOCETAXEL ANHYDROUS]"
  Display unit: "µM"
  Cmp: "="
  IC50: 0.004
- Molecule: "Nc1ncnn2c([C@@H]3O[C@H](CO)[C@@H](O)[C@H]3O)cc(-c3ccsc3)c12"
  Display unit: "µM"
  Cmp: "="
  IC50: 43.5
- Molecule: "Nc1ncnn2c([C@@H]3O[C@H](CO)[C@@H](O)[C@H]3O)cc(C#Cc3ccccc3)c12"
  Display unit: "µM"
  Cmp: "="
  IC50: 41.4
